# experiment description: chemical genetic growth profiling, strain panel (AID 1159580);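 further: tested at 20 µM; growth read once vehicle control cultures reached saturation at 30 °C; 1 = growth at the plate median or of vehicle wells; lower values mean less growth of the strain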
# experimental parameters: S. cerevisiae deletion strains, growth OD, locus YAL026C, strain drs2
Screen size: about 5,500 compounds; about 2,000 (36%) were called active. Another 18% or so got no clear call; they are omitted. No stated cut-off is given here; in the data, active means normalized growth mostly below about 0.91 (no sharp cut-off); inconclusive means no clear call, values can overlap the other calls; inactive means mostly above about 0.92. The list shows a part of the results.
Please reply with one of these outcomes: true (1) (active), false (0) (inactive)

- CC(C)=CCC[C@](C)(O)C1CC=C(C)CC1 (stereo partly specified): false (0)
- Nc1ncnc2c1ncn2C1C[C@H](O)[C@@H](CO)O1 (stereo partly specified): false (0)
- CCCCC(CC)CN1CN(CC(CC)CCCC)CC(C)(N)C1 (stereo unspecified): true (1)
- COC(C)(C)CCC[C@H](C)C/C=C/C(C)=C/C(=O)OC(C)C: false (0)
- OC[C@@H]1CCCN2CCCC[C@H]12: false (0)
- CC(C)=CCC/C(C)=C/CC/C(C)=C/CC/C(C)=C/CC/C(C)=C/CC/C(C)=C/CC/C(C)=C/CC/C(C)=C/CC/C(C)=C/CO: false (0)
- CC(=O)O[C@H]1C[C@@H](OC(C)=O)C(C)(C)C2C[C@@H](OC(C)=O)[C@@]3(C)C4=CC(=O)O[C@@H](c5ccoc5)[C@]4(C)CCC3[C@]21C (stereo partly specified): false (0)
- CN1C(CC(=O)c2ccccc2)CCCC1CC(O)c1ccccc1 (stereo unspecified): false (0)
- C=CC(C1=CC(=O)C=CC1=O)c1ccccc1 (stereo unspecified): false (0)
- COc1c2c(cc3c1OCO3)CCN(C)C2: false (0)

We now examine a further compound.
[Q] Hello, I am checking results. What call was entered for Nc1ncnc2c1ncn2C1O[C@H](COP(=O)(O)O)[C@@H](O)[C@H]1O (stereo partly specified) ?
[A] false (0)

====

# experiment description: chemical genetic growth profiling, strain panel (AID 1159580);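 further: tested at 20 µM; growth read once vehicle control cultures reached saturation at 30 °C; 1 = growth at the plate median or of vehicle wells; lower values mean less growth of the strain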
# experimental parameters: S. cerevisiae deletion strains, growth OD, locus YEL061C, strain CIN8
In all, about 5,500 compounds went through this assay and about 2,000 (36%) were called active. Another 18% or so got no clear call; they are omitted. Cut-off read from the data, not from the text of the source: active = normalized growth mostly below about 0.91 (no sharp cut-off); inconclusive = no clear call, values can overlap the other calls; inactive = mostly above about 0.92. Some of the results follow.
Result category, one only: active, inactive

Below are worked cases with known answers.
- O=C(Nc1ccc(C(F)(F)F)cc1)Nc1ccccc1C(=O)O: inactive
- C[C@H](N)[C@H](O)c1ccc(O)c(O)c1: inactive
- O=C(O)/C=C/C=C/c1ccccc1: inactive
- COC(=O)c1ccc(-c2ccc(Cl)cc2)s1: active
- Fc1cccc(Cl)c1CSc1nncn1-c1ccc(OCc2ccccc2)cc1: inactive

[Q] Call for entry CC(C)(C)NC[C@@H](O)COc1nsnc1N1CCOCC1 :
[A] inactive

[Q] Any idea what this test logged for NC(=NCCC[C@H](N)C(=O)O)NC(CCC(=O)O)C(=O)O (some centres not stated) ?
[A] inactive

[Q] Give the logged outcome of this assay for the following compound: CN[C@H](CC(=O)O)C(=O)O
[A] inactive

[Q] Any idea what this test logged for CC(Cc1ccc(O)c(O)c1)C(C)Cc1ccc(O)c(O)c1 (configuration not stated) ?
[A] active

[Q] Status in this test for CCSc1sc(C(=O)OC)c(-c2ccc(Cl)cc2)c1C#N ?
[A] inactive

[Q] Just curious, what result did O=C(O)c1ccccc1Nc1cccc(C(F)(F)F)c1 get here?
[A] inactive

[Q] Per the assay record, what outcome was assigned to O=C(N/N=C\C=C\c1ccccc1)c1ccccc1-n1cccc1 ?
[A] inactive

Attribution: PubChem BioAssay AID1159580
